- System: OVCAR-4
- PROCEDURE_TEXT: NCI tumour cell line growth inhibition, 48 h
The source made the active and inactive calls. Rule as the data show it: active = GI50 up to about 1.1 µM and inactive = higher.
Respond using exactly one of the listed classes: Y (active), N (inactive)

COC(=O)CC(SCCO)SCCO ... N
C=CCOC(=O)NC1C(OC(C)[C@@H](NC(=O)OCc2ccccc2)C(=O)OC(C)(C)C)OC(COC(C)=O)C(OC(C)=O)C1OC(C)=O (stereo not given in full) ... N
C1=CC=C2NCCCCCCC/N=C3/C=CC=CC=C3NCCCCCCC/N=C\2C=C1 ... N
CCCC(O)c1ccc2[nH]c3c(C)cc([N+](=O)[O-])c(C)c3c2c1 (stereo not given) ... N
CCOC(=O)CCCn1cc(C(=O)OC)nn1 ... N
COc1cc(O)c(Cc2ccccc2O)c(O)c1C(=O)CCc1ccccc1 ... N

(Q) Can you look up the reported call for CN1C2=C(CC3=C1CC(C)(C)CC3=O)C(=O)CC(C)(C)C2 for me?
(A) N

(Q) Would you mind telling me which call this test gave Cc1cn(C2CC(O)C(COC(N)=O)O2)c(=O)[nH]c1=O (stereo not given) ?
(A) N

(Q) // return assay outcome for CCCCCc1c2nc(c(CCCCC)c3ccc([nH]3)c(CCCCC)c3nc(c(CCCCC)c4ccc1[nH]4)C=C3)C=C2
(A) N
